biological target: human full length Hsp90 (Homo sapiens, UniProt P07900); construct: amino acid residues 1 to 732 of human Hsp90 (GenBank: BC121062.2); made in house; host or cells: E. coli BL21DE3 (pET15b); test: Fluorescence polarization Hsp90 competitive binding assay (GM-FITC displacement); settings: assay validation / precision runs; read-out: IC50
pIC50: −log10 of the molar value.
measured_metric: pIC50

So, `COc1c(C)cnc(CN(CCc2ccccc2)c2cc(Cl)nc(N)n2)c1C` ? Its pIC50 was 6.51 to 6.59

---

molecular target: human full length Hsp90 (Homo sapiens); construct: amino acid residues 1 to 732 of human Hsp90 (GenBank: BC121062.2); made in house; host or cells: E. coli BL21DE3 (pET15b); test: Fluorescence polarization Hsp90 competitive binding assay (GM-FITC displacement); details: IC50, inhibition of Hsp90 activity, FIG. 7 concentration response
measured_metric: pIC50
Worth noting: pIC50 values are minus log10 of concentrations stated in mol/L.

In [3]: df
Out[3]:
                                   molecule  measured_result
0  COc1c(C)cnc(CN(CCc2ccccc2)c2cc(Cl)nc(N)n2)c1C [SBI-0639353]             6.59

Kindly review the next molecule as well.
So, COc1c(C)cnc(CN(CCc2ccc(F)cc2)c2cc(Cl)nc(N)n2)c1C [SBI-0640725] ? Its pIC50 was 7.00

---

molecular target: human full length Hsp90 (Homo sapiens, UniProt P07900); construct: amino acid residues 1 to 732 of human Hsp90 (GenBank: BC121062.2); made in house; host or cells: E. coli BL21DE3 (pET15b); experiment: Fluorescence polarization Hsp90 competitive binding assay (GM-FITC displacement); settings: Table II, binding affinities ranked by potency; read-out: IC50
measured_metric: IC50 (µM)
Give the value, in units of µM, as a plain number.

Example entries begin here.
In [3]: df
Out[3]:
                                   compound                          target_or_system  measured_result
0         Cc1cnc(CNc2cc(Cl)nc(N)n2)c(C)c1Br  human full length Hsp90 (Homo sapiens, UniProt P07900)             1.47
1  COc1c(C)cnc(CN(C(=O)C(C)C)c2cc(Cl)nc(N)n2)c1C  human full length Hsp90 (Homo sapiens, UniProt P07900)             13.9

Kindly review the next compound as well.
So, `COc1c(C)cnc(CN(CCc2ccc(Cl)cc2)c2cc(Cl)nc(N)n2)c1C` ? Its IC50 was 0.311

---

molecular target: human full length Hsp90 (Homo sapiens); construct: amino acid residues 1 to 732 of human Hsp90 (GenBank: BC121062.2); made in house; host or cells: E. coli BL21DE3 (pET15b); test: Fluorescence polarization Hsp90 competitive binding assay (GM-FITC displacement); settings: compound at 1 μM; read-out: Biochemical Potency % Inhibition at 1 μM
Item-by-item account of inhibition at 1 µM
Field: value (include unit after the number)

                                   compound     measured_metric  measured_result
0  COc1cccc2c1ccn2-c1cc(N)c(C(N)=O)c(NC2CCOCC2)c1  inhibition at 1 µM               5%
1         COc1c(C)cnc(CNc2cc(Cl)nc(N)n2)c1C  inhibition at 1 µM               7%
2         Cc1cnc(CNc2cc(Cl)nc(N)n2)c(C)c1Cl  inhibition at 1 µM              47%
3          Cc1cnc(CNc2cc(Cl)nc(N)n2)c(C)c1I  inhibition at 1 µM              66%
4      COc1c(C)cnc(CN(C)c2cc(Cl)nc(N)n2)c1C  inhibition at 1 µM              57%

So, `Cc1cnc(CNc2cc(Cl)nc(N)n2)c(C)c1Br` ? Its inhibition at 1 µM was 44%

So, `COc1c(C)cnc(CNc2nc(N)nc3[nH]cnc23)c1C` ? Its inhibition at 1 µM was 4%

---

target: human full length Hsp90 (Homo sapiens, UniProt P07900); construct: amino acid residues 1 to 732 of human Hsp90 (GenBank: BC121062.2); made in house; host or cells: E. coli BL21DE3 (pET15b); assay: Fluorescence polarization Hsp90 competitive binding assay (GM-FITC displacement); settings: Table II, binding affinities ranked by potency; read-out: IC50
Item-by-item account of pIC50
Worth noting: pIC50 values are minus log10 of concentrations stated in mol/L.

Example entries begin here.
In [3]: df
Out[3]:
                                   compound  measured_metric  measured_result
0  COc1c(C)cnc(CN(C(=O)CC(C)(C)C)c2cc(Cl)nc(N)n2)c1C            pIC50             4.52
1   CCCCN(Cc1ncc(C)c(OC)c1C)c1cc(Cl)nc(N)n1            pIC50             6.14
2  COc1c(C)cnc(CN(CCN2CCOCC2)c2cc(Cl)nc(N)n2)c1C            pIC50             5.77
3          Cc1cnc(CNc2cc(Cl)nc(N)n2)c(C)c1I            pIC50             6.36
4  CCCC(=O)N(Cc1ncc(C)c(OC)c1C)c1cc(Cl)nc(N)n1            pIC50             4.52
5  CCCCCCN(Cc1ncc(C)c(OC)c1C)c1cc(Cl)nc(N)n1            pIC50             6.41

So, `COc1c(C)cnc(CN(C)c2cc(Cl)nc(N)n2)c1C` ? Its pIC50 was 6.07

So, `COc1c(C)cnc(CN(CCc2ccc(F)cc2)c2cc(Cl)nc(N)n2)c1C` ? Its pIC50 was 7.00

So, `CCN(Cc1ncc(C)c(OC)c1C)c1cc(Cl)nc(N)n1` ? Its pIC50 was 5.94

---

Target: human full length Hsp90 (Homo sapiens)
Construct: amino acid residues 1 to 732 of human Hsp90 (GenBank: BC121062.2); made in house; host or cells: E. coli BL21DE3 (pET15b)
Assay: Fluorescence polarization Hsp90 competitive binding assay (GM-FITC displacement)
Conditions: compound at 10 μM; read-out: Biochemical Potency % Inhibition at 10 μM
Method: Hsp90 binding assays was performed generally according to the procedure described in J. Biomol. […] Hsp90 inhibitors were solubilized in DMSO at a stock concentration of 50 mM. […] Fluorescence polarization readings were taken in duplicate at excitation and emission wavelengths of 480 nm and 500 nm respectively. Specific binding was calculated by subtracting polarization values in the presence of Hsp90 from those in the absence of Hsp90. […]
Item-by-item account of inhibition at 10 µM
Give the value, in units of %, as a plain number.

>>> df
                                   compound  measured_result
0  CCOc1ccc(-c2ccc(CNc3cc(Cl)nc(N)n3)cc2)cc1                3
1         Cc1cnc(CNc2cc(Cl)nc(N)n2)c(C)c1Cl               93

inhibition at 10 µM value, target or system human full length Hsp90 (Homo sapiens), for `COc1c(C)cnc(CN(C)c2cc(Cl)nc(N)n2)c1C` : 94

inhibition at 10 µM value, target or system human full length Hsp90 (Homo sapiens), for `Nc1nc(Cl)cc(NCc2ccc(-c3ccc(Cl)cc3F)cc2)n1` : 34

inhibition at 10 µM value, target or system human full length Hsp90 (Homo sapiens), for `COc1ccc(CNc2cc(C(F)(F)F)nc(N)n2)c(OC)c1OC` : 4

---

target: human full length Hsp90 (Homo sapiens, UniProt P07900); construct: amino acid residues 1 to 732 of human Hsp90 (GenBank: BC121062.2); made in house; host or cells: E. coli BL21DE3 (pET15b); test: Fluorescence polarization Hsp90 competitive binding assay (GM-FITC displacement); conditions: compound at 10 μM; read-out: Biochemical Potency % Inhibition at 10 μM
measured_metric: inhibition at 10 µM (%)
Give the value, in units of %, as a plain number.

                                  compound                          target_or_system      measured_metric  measured_result
0          Nc1nc(Cl)cc(Nc2ccc3c(c2)OCO3)n1  human full length Hsp90 (Homo sapiens, UniProt P07900)  inhibition at 10 µM               18
1        COc1c(C)cnc(CNc2cc(Cl)nc(N)n2)c1C  human full length Hsp90 (Homo sapiens, UniProt P07900)  inhibition at 10 µM               61
2      COc1cc(CNc2cc(Cl)nc(N)n2)cc(OC)c1OC  human full length Hsp90 (Homo sapiens, UniProt P07900)  inhibition at 10 µM               25
3            COc1cccc(CNc2cc(Cl)nc(N)n2)c1  human full length Hsp90 (Homo sapiens, UniProt P07900)  inhibition at 10 µM               13
4  COc1cc(CNc2nc(N)nc3[nH]ccc23)cc(OC)c1OC  human full length Hsp90 (Homo sapiens, UniProt P07900)  inhibition at 10 µM               10

So, `Nc1nc(Cl)cc(NCc2ccc(-c3ccccc3)cc2)n1` ? Its inhibition at 10 µM was 21

So, `COc1c(C)cnc(CNc2nc(N)nc3[nH]cnc23)c1C` ? Its inhibition at 10 µM was 19

So, `Cc1cc(C)cc(CNc2cc(C(F)(F)F)nc(N)n2)c1` ? Its inhibition at 10 µM was 17

So, `Cc1cnc(CNc2cc(Cl)nc(N)n2)c(C)c1Br` ? Its inhibition at 10 µM was 94

So, `Cc1cnc(CNc2cc(Cl)nc(N)n2)c(C)c1I` ? Its inhibition at 10 µM was 98

So, `Nc1nc(Cl)cc(NCc2ccc(Oc3ccccc3)cc2)n1` ? Its inhibition at 10 µM was 10

So, `COc1cccc2c1ccn2-c1cc(N)c(C(N)=O)c(NC2CCOCC2)c1` ? Its inhibition at 10 µM was 10
